- TARGET_SYSTEM: Nuclear receptor subfamily 1 group D member 1 (Homo sapiens) (UniProt P20393)
- Sequence (P20393 whole entry, looked up): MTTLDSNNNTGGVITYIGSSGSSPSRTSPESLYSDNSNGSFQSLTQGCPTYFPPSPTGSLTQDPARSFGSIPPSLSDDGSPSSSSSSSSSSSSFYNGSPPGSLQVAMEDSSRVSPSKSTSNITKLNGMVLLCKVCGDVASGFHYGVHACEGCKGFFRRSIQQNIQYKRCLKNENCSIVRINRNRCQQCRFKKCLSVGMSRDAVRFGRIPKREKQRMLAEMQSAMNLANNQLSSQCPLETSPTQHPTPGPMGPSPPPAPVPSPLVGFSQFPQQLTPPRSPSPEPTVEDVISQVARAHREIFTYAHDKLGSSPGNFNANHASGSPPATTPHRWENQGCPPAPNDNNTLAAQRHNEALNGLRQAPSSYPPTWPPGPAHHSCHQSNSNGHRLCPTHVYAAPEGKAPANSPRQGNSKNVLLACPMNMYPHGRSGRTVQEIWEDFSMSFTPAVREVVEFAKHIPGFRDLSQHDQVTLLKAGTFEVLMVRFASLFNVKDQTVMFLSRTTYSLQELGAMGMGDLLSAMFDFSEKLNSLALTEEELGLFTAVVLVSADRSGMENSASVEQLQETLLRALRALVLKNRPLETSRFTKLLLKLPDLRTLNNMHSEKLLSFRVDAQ
- ASSAY_INFO: modulators of Rev-erb alpha DNA binding, primary screen, biochemical, FITC-DNA, fluorescence polarization, uHTS (AID 1259318);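 note: 0% = DMSO wells with 35 nM protein and 100% = DMSO wells with 750 nM protein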
- CONDITION_NOTES: Rev-erbα–FITC-DNA binding, 90 min, at 10 µM, stronger effect = higher value
Hit rate of the full screen: of about 370,000 compounds, about 3,000 (0.81%) were called active. Only a selection was taken, and actives are over-represented in it overall.
Item-by-item account of activity
Field format: number, assumed %, no unit text.

GIVEN_SMILES: CCCNC(=O)Nc1ccc2c(c1)C(=O)N(C)[C@H]1CC[C@H](CC(=O)NCC3CCCCC3)O[C@@H]1CO2
activity, %: 119

GIVEN_SMILES: CCC(=O)Nc1ccc2c(c1)C(=O)N(C)[C@@H]1CC[C@@H](CC(=O)NCCc3ccccc3)O[C@H]1CO2
activity, %: 15.2

Consider the record given below.
# input Returns the measured activity for the input compound. Input: COCC(=O)N[C@@H]1C[C@@H]2O[C@@H](CO)CC[C@@H]2O[C@@H]1CCc1ccc(-c2ccccc2)cc1
# output -1.13

====

Item-by-item account of activity
- TARGET_SYSTEM: Nuclear receptor subfamily 1 group D member 1 (Homo sapiens) (UniProt P20393)
- ASSAY_INFO: modulators of Rev-erb alpha DNA binding, primary screen, biochemical, FITC-DNA, fluorescence polarization, uHTS (AID 1259318);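 note: 0% = DMSO wells with 35 nM protein and 100% = DMSO wells with 750 nM protein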
- CONDITION_NOTES: Rev-erbα–FITC-DNA binding, 90 min, at 10 µM, stronger effect = higher value
Among all 370,000 compounds or so, about 3,000 (0.81%) were called active. The sample as a whole holds a higher share of actives than the screen did.
Field format: number, assumed %, no unit text.

Guide cases for activity, answers given:
GIVEN_SMILES: Cc1cc(Br)cn2c(Cc3ccccc3C(F)(F)F)c(-c3ccc(C#N)cc3)nc12
RECORDED_ENDPOINT: activity
READING: 16.1
--
GIVEN_SMILES: COc1ccc(CN(C(=O)CSc2nnc(-c3ccc(OC)c(OC)c3)o2)c2ccc(F)cc2)cc1
RECORDED_ENDPOINT: activity
READING: 4.8
--
GIVEN_SMILES: COc1ccc(-c2nnc(SCC(=O)c3ccc4c(c3)OCCO4)o2)cc1
RECORDED_ENDPOINT: activity
READING: 39.7
--
GIVEN_SMILES: Cc1cccc(N(CC(=O)Nc2ccc(-c3nc4ccc(C)cc4s3)cc2)S(C)(=O)=O)c1
RECORDED_ENDPOINT: activity
READING: 35.6
--
GIVEN_SMILES: Cc1cc(Br)cn2c(Cc3ccccc3C(F)(F)F)c(C3CCCCC3)nc12
RECORDED_ENDPOINT: activity
READING: -1.46

# input Returns the measured activity for the input compound. Input: O=C(NCc1ccc(Cl)cc1)c1cc2c(nc3sccn32)s1
# output 25.1

# input How about this compound: c1ccc(CSc2ncnc3c2sc2nc(N4CCOCC4)c4c(c23)CCCC4)cc1
# output 158

# input How about this compound: CCCn1c(SCC(=O)c2ccc3c(c2)OCCO3)nnc1C(C)C
# output -3.34

# input How about this compound: O=S(=O)(c1ccccc1)c1nc(Cc2ccccc2)oc1N1CCOCC1
# output -4.54

# input How about this compound: Cc1ccc2nc(-c3ccc(NC(=O)CN(C)S(=O)(=O)c4ccccc4)cc3)sc2c1
# output 8.26

Each recorded value in this set is attributed to PubChem BioAssay AID1259318.
